Values were extracted from paper PMC5540273.

- Test system: IRAK3
- Conditions Used: concentration: 1 μM, replicates: in singlicate; n = 1;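 further: KINOMEscan kinase panel screen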
Give measured %Inh for each item. Keep answers brief.
One number for each entry, in %.

Sample records with %Inh:
COC(=O)c1c(-c2ccccc2)c2cc(C(=O)O)ccc2c(=O)n1Cc1ccccc1 : 0
CC1=C(C(=O)Nc2cc3cn[nH]c3cc2F)C(c2ccc(C(F)(F)F)cc2)CC(=O)N1 (stereo not drawn) [GSK429286] : 5
Nc1nc(-c2nccs2)c(-c2ccnc3ccccc23)s1 [GW693542] : 7

Would you mind listing %Inh for each of the following molecules?
1. Cc1cc(N2Cc3ccccc3C2)nc(Nc2ccc(S(=O)(=O)N3CCOCC3)cc2)n1.Cl [GSK1669917]
2. Cc1ccc(NC(=O)Nc2cc(C(C)(C)C)nn2-c2ccccc2)cc1 [GSK1014915]
3. Cc1cccc(-c2nc(Nc3ccncc3)c3ccccc3n2)n1 [GW855857]
4. Fc1cc(Cl)ccc1Nc1ccnc2cc(-c3ccc(CN4CCCCC4)o3)ccc12 [GW560116]
5. CN1C(=O)C(Nc2ccc(Cl)c(C(=O)O)c2)=C(c2ccc(Cl)cc2)C1=O [SB-404290]

1. 0
2. 100
3. 21
4. 0
5. 0

Looking up COc1ccc(C2=C(Nc3cccc(C(=O)O)c3)C(=O)NC2=O)cc1 [SB-390765] , I see its %Inh listed as 0

====

- Tested on: GRK4
- Conditions Used: concentration: 1 μM, replicates: in singlicate; n = 1
Quantity Name: %Inh

Known %Inh results, listed for orientation:
O=S(=O)(c1ccc(-c2ccnc3[nH]ccc23)cc1)N1CCCC1 : 0%
COC(=O)c1c(-c2ccccc2)c2cc(OC)ccc2c(=O)n1Cc1ccccc1 : 0%
O=C1NC(=O)C(N2CCc3ccccc32)=C1c1ccccc1Cl : 24%
COc1cc2nccc(Nc3ccc(NC(=O)c4ccc(C)cc4)c(O)c3)c2cc1OC.Cl : 0%

# ---- query compound ----
Entry under test: Cc1cccc(-c2nc(Nc3ccncc3)c3ccccc3n2)n1 . Its %Inh was 0%

====

- Tested on: PDGFRB
- Conditions Used: concentration: 1 μM, replicates: in singlicate; n = 1
Kindly supply the reported %Inh values for the records listed here.
Give bare numbers, in %.

Record excerpt, results attached:
COc1cccc(-c2cc(-c3c[nH]nc3-c3ccccn3)ccn2)c1 : 8
Cc1ccc(C(=O)Nc2ccc(Nc3ccnc4cc(-c5ccccn5)ccc34)cc2O)cc1.Cl : 86
Fc1cc(Cl)ccc1Nc1ccnc2cc(I)ccc12 : 88

Look up %Inh for the entries below, preserving their order.
1. Cc1cccc(-c2nc(Nc3cccc(C(N)=O)c3)c3ccccc3n2)n1
2. O=c1cc(N2CCOCC2)nc2n(Cc3cccc(Cl)c3Cl)ccn12

5
37

====

Provide the recorded %Inh for the entries that follow.
- System: CLK4
- Conditions Used: concentration: 1 μM, replicates: in singlicate; n = 1
Answers are plain numbers, in %.

Known %Inh results, listed for orientation:
O=C(Nc1ccc2c(c1)OCO2)NC1CCN(c2ccnc(Nc3ccc(F)cc3)n2)C1 (centres unmarked) [GSK1379724] : 6
COc1cc2ncn(-c3cc(OCC4CCCO4)c(C(N)=O)s3)c2cc1OC (centres unmarked) [GSK204607] : 18
O=C(Nc1ccccc1)Nc1cccc(Oc2ccc3nccn3n2)c1 : 0
COc1cc2nccc(Nc3ccc(NC(=O)c4ccc(C)cc4)c(O)c3)c2cc1OC.Cl [GW440132] : 14

Alright, here's another compound for you.
%Inh measured on COc1ccc(Nc2nccc(-c3cccc(NC(=O)c4cc5cc(F)ccc5[nH]4)c3)n2)cc1 [GSK1229782] = 28

====

Exercise: for every item that follows, state its recorded %Inh.
- System: RIPK5
- Conditions Used: concentration: 1 μM, replicates: in singlicate; n = 1
Give bare numbers, in %.

Cc1c(O)cccc1Nc1ccnc2ccc(C(F)(F)F)cc12.Cl : 0
Fc1cccc(COc2nnc(-c3ccc4c(c3)CCO4)o2)c1 : 15
Fc1cc(Cl)ccc1Nc1ccnc2cc(I)ccc12 : 0
Nc1ncnc2[nH]c(-c3ccccc3)nc12 : 8

Now consider the entry below.
Looking up O=C(Nc1n[nH]c2nc(-c3nccs3)c(Br)cc12)C1CCCC1 , I found its %Inh recorded as 1

====

- System: CHEK2
- Conditions Used: concentration: 1 μM, replicates: in singlicate; n = 1
Quick rule: %Inh of at least 6% means label 1, below that means label 0.

# count of solved cases: 5
C[C@@H]1CCCCN1c1cc(-c2ccc3c(N)n[nH]c3c2)nc(N)n1 : label 1
CCn1c(-c2cccnc2O)nc2cnccc21 : label 0
O=C(Nc1ccccc1)Nc1cccc(Oc2ccc3nccn3n2)c1 : label 0
Nc1ncnc2[nH]c(-c3ccccc3)nc12 : label 0
Cc1c(O)cccc1Nc1ccnc2ccc(C(F)(F)F)cc12.Cl : label 0

Record COc1ccc(CNC(=O)NC2CCN(c3ccnc(Nc4cc(OC)c(OC)c(OC)c4)n3)C2)cc1 (stereo not drawn) ; criterion: %Inh no lower than 6%. Met? label 1

State whether the measured %Inh reaches 6%, counting equality as reaching it, for Cn1ccc2ncnc(Oc3ccc(NC(=O)Nc4ccccc4)cc3)c21 label 1

Quick check, %Inh >= 6%? CC(C)(C)c1ccc(C(=O)Nc2cn3cc(Cl)ccc3n2)cc1 label 0

====

- Test system: MYLK2
- Conditions Used: concentration: 1 μM, replicates: in singlicate; n = 1
Field: %Inh. Provide a value for each of the molecules that follow.
Kindly write the number and append the unit.

// below: answered molecules
COC(=O)c1c(-c2ccccc2)c2cc(OC)ccc2c(=O)n1Cc1ccccc1 : 0%
COc1cc2ncn(-c3cc(OCC4CCCO4)c(C(N)=O)s3)c2cc1OC (stereo not shown) : 0%
Cn1ccc2ncnc(Oc3ccc(Nc4nc5ccccc5[nH]4)cc3)c21 : 0%
Cc1cccc(-c2nc(C)cc(Nc3ccncc3)n2)n1 : 16%
Cc1c(Cn2ccn3c(=O)cc(N4CCOCC4)nc23)cccc1C(F)(F)F : 0%

Would you mind giving %Inh for every molecule in the list below?
1. COc1cccc(NC(=O)NC2CCN(c3ccnc(Nc4ccc(F)cc4)n3)C2)c1 (stereo not shown)
2. NC(=O)c1nnc2ccccc2c1N
3. COc1ccc(C2=C(Nc3cccc(C(=O)O)c3)C(=O)NC2=O)cc1
4. O=C(Nc1ccccc1)Nc1cccc(Oc2ccc3nccn3n2)c1
5. COc1ccc(CNC(=O)NC2CCN(c3ccnc(Nc4cc(OC)c(OC)c(OC)c4)n3)C2)cc1 (stereo not shown)
6. CN1C(=O)C(Nc2ccc(Cl)c(C(=O)O)c2)=C(c2ccc(Cl)cc2)C1=O
7. Cl.O=C(Nc1cccc(-c2nn3ncccc3c2-c2ccnc(Nc3cccnc3)n2)c1)c1c(F)cccc1F
8. CCn1c(-c2cccnc2O)nc2cnccc21

1%
0%
0%
0%
4%
0%
13%
15%

====

- Test system: ERBB2
- Conditions Used: concentration: 1 μM, replicates: in singlicate; n = 1
Label not met if %Inh falls below 20%; label met in every other case.

Consider the worked cases shown below.
O=S(=O)(c1ccc(-c2ccnc3[nH]ccc23)cc1)N1CCCC1 [GSK846226] : not met
Cc1csc(-c2nc(Nc3ccncc3)c3ccccc3n2)n1 [GW869640] : met
Cn1ccc2ncnc(Oc3ccc(Nc4nc5ccccc5[nH]4)cc3)c21 : not met
Cc1cc(NCC(c2ccccc2)c2ccccc2)nc(NCc2ccc(C(F)(F)F)cc2)n1 [GW497681] : met
Nc1nc(-c2nccs2)c(-c2ccnc3ccccc23)s1 [GW693542] : met

hey, is %Inh for this one >= 20%? Cc1ccc(-c2cc(-c3c[nH]nc3-c3ccccn3)ccn2)cc1 [GW684088] met

Is it the case that Cl.O=C(Nc1cccc(-c2nn3ncccc3c2-c2ccnc(Nc3cccnc3)n2)c1)c1c(F)cccc1F [GSK312879] has %Inh reaching or exceeding 20%? met

Test whether the compound COc1ccc2nc(-c3cccc(C)n3)nc(Nc3ccncc3)c2c1 [GSK204919] records %Inh of 20% or higher. not met

Does the reported %Inh for Cc1ccc(C(=O)Nc2ccc(Nc3ccnc4cc(-c5ccccn5)ccc34)cc2O)cc1.Cl [GW440146] fall at or above the 20% mark? met

====

- System: TGFBR2
- Conditions Used: concentration: 1 μM, replicates: in singlicate; n = 1
Assignment: determine reported %Inh for the given molecules.
One number for each entry, in %.

Before answering, review these 5 worked examples.
COc1cc(Nc2nccc(N3CCC(NC(=O)Nc4cc(C)ccc4C)C3)n2)cc(OC)c1OC (stereo not drawn) [GSK1379762] : 0
Cn1ccc2ncnc(Oc3ccc(Nc4nc5ccccc5[nH]4)cc3)c21 : 0
Nc1nc(-c2nccs2)c(-c2ccnc3ccccc23)s1 [GW693542] : 55
COc1cc2nccc(Nc3ccc(NC(=O)c4ccc(C)cc4)c(O)c3)c2cc1OC.Cl [GW440132] : 0
CCCc1ccc(S(=O)(=O)NC2CCN(c3ccnc(Nc4ccc(F)cc4)n3)C2)cc1 (stereo not drawn) [GSK1379715] : 0

Dear colleague, could you send me %Inh for each of the items below? Thanks.
1. Cc1nnc(-c2ccc3occ(-c4ccc(S(C)=O)cc4)c3c2)[nH]1 (stereo not drawn)
2. Cn1cncc1-c1ccc2ncnc(Nc3ccc(OCc4ccccc4)cc3)c2c1 [GW320571]

0
29

Please state, for each entry, its recorded %Inh.
1. O=C(Nc1n[nH]c2nc(-c3nccs3)c(Br)cc12)C1CCCC1 [SB-742609]
2. Cl.O=C(Nc1cccc(-c2nn3ncccc3c2-c2ccnc(Nc3cccnc3)n2)c1)c1c(F)cccc1F [GSK312879]
3. Cn1ccc2ncnc(Oc3cccc(C(=O)Nc4ccccc4)c3)c21
4. COc1ccc(C2=C(Nc3cccc(C(=O)O)c3)C(=O)NC2=O)cc1 [SB-390765]
5. COc1cc2ncn(-c3cc(OCC4CCCO4)c(C(N)=O)s3)c2cc1OC (stereo not drawn) [GSK204607]
6. CN1C(=O)C(Nc2ccc(Cl)c(C(=O)O)c2)=C(c2ccc(Cl)cc2)C1=O [SB-404290]
7. Cc1c(Cn2ccn3c(=O)cc(N4CCOCC4)nc23)cccc1C(F)(F)F [GSK2289044]
8. Fc1cc(Cl)ccc1Nc1ccnc2cc(-c3ccc(CN4CCCCC4)o3)ccc12 [GW560116]

[0, 0, 0, 0, 0, 0, 0, 0]

// each listed molecule needs a value for %Inh
1. Cc1cc(N2Cc3ccccc3C2)nc(Nc2ccc(S(=O)(=O)N3CCOCC3)cc2)n1.Cl [GSK1669917]
2. CSc1nn2c(=O)cc(N3CCOCC3)nc2n1Cc1cccc(C(F)(F)F)c1C [GSK2363608]
3. CC(C)(C)c1ccc(C(=O)Nc2cn3cc(-c4cccnc4)ccc3n2)cc1

1. 0
2. 0
3. 7
